tested on: RXF 393 renal; experiment: NCI tumour cell line growth inhibition, 48 h
Label scheme for TGI: lower than 20 µM is NOT MET, 20 µM and above is MET.

Known results for molecules:
>>> group_label("CC1CCCCCC(=O)c2c(O)cc(O)cc2CC(=O)O1 (configuration not stated)")
"MET"
>>> group_label("N#CCCNc1nonc1-c1nc2ccccc2n1CC(=O)c1ccc(N)cc1")
"MET"
>>> group_label("CC(=O)CCC#Cc1ccccc1C(=O)C(C)=[N+]=[N-]")
"MET"

Data request: Form field: TGI at least 20 µM? Entry: COC1=C(C(c2cc(OC)c(OC)c(OC)c2)c2cc3c(cc2OC)OCO3)C(=O)OC1 (configuration not stated)
Data returned: MET

Data request: Decide: is the reported value of TGI for C/C=C1/CC(C(=O)OC)N(C(=O)OCc2ccccc2)C1=S (configuration not stated) equal to or greater than 20 µM?
Data returned: MET

Data request: hey, is TGI for this one >= 20 µM? COc1cc([C@@H]2c3cc4c(cc3[C@H](OC3OC5COC(c6ccco6)OC5C(O)C3O)C3COC(=O)[C@@H]32)OCO4)cc(OC)c1OC (some centres not stated)
Data returned: MET

* * *

tested on: CAKI-1 renal; assay: NCI tumour cell line growth inhibition, 48 h
value_type: TGI (µM)
Write the answer as a number in µM, unit excluded.

A selection of reference data follows.
>>> recorded_value("C/C(=C\\C(=O)O[C@H]1[C@@H]2[C@H](C)CC[C@H]2[C@]2(C)O[C@@]1(C1CCCCC1)C[C@H]2OC(=O)CO)c1ccccc1")
5.01
>>> recorded_value("CCC(C)N1CN(c2ccccc2)C2(CCN(CC3COc4ccccc4O3)CC2)C1=O (centres undefined)")
38.4
>>> recorded_value("CC[C@@]1(OP(=O)(O)O)C(=O)OCc2c1cc1n(c2=O)Cc2cc3ccccc3nc2-1")
1.04

Shifting focus to the compound that follows.
Data request: Given the entry CC(=O)c1ccc(Br)cc1NC1=CC(=O)c2ncccc2C1=O , report its measured TGI.
Data returned: 22.3

* * *

system: PC-3 prostate; experiment: NCI tumour cell line growth inhibition, 48 h; in the data active = GI50 below about 0.43 µM; inactive = the rest
The categories you may choose from are Y for active, N for inactive

Completed entries (count: 3):
>>> group_label("CCCCn1c(=O)[nH]c(N)c([C@@H]2c3c([nH]c(=O)n(CCCC)c3=O)Oc3ccc4ccccc4c32)c1=O")
"N"
>>> group_label("COc1ccc(-c2nc3sc(-c4cc(OC)c(OC)c(OC)c4)nn3c2/C=C2/C(=O)Nc3ccc(F)cc32)cc1")
"N"
>>> group_label("CN1C(=O)C(c2c[nH]c3ccccc23)=C(c2c[nH]c3ccccc23)C1=O")
"N"

Data request: Query: recorded result category for O=C(CCCc1ccc(N(CCCl)CCCl)cc1)NCc1ccccc1 in this test
Data returned: N

Data request: Query: recorded result category for COC(=O)N[C@H]1CCc2cc(OC)c(OC)c(OC)c2-c2ccc(SC)c(=O)cc21 in this test
Data returned: Y

Data request: State the result this test recorded for CC1=C(CCCOC(=O)[C@H](N)CC(C)C)C2=C(C)C3(CC3)[C@@](C)(O)C(=O)C2=C1 .
Data returned: N

Data request: I'd appreciate the recorded outcome for CC1(C)N=C(N)N=C(N)N1c1ccc(OCCCNC(=O)Nc2ccc(S(=O)(=O)F)cc2)c(Cl)c1 from this test.
Data returned: Y

Data request: // return assay outcome for N#CCCNc1nonc1-c1nc2ccccc2n1CC(=O)c1ccc(N)cc1
Data returned: Y

Data request: Tell me the recorded outcome of this test for CN1CCN(Cc2ccc(NC(=O)c3cncc(C#Cc4cnc(N)c5ncccc45)c3)cc2C(F)(F)F)CC1 .
Data returned: N
